Target: T1, CRBN, Q96SW2;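 note: pooled lentiviral library of zinc finger degron-EGFP fusions in mCherry-positive Jurkat cells, FACS-sorted after compound exposure, with degron abundance counted by next-generation sequencing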
T1 chain: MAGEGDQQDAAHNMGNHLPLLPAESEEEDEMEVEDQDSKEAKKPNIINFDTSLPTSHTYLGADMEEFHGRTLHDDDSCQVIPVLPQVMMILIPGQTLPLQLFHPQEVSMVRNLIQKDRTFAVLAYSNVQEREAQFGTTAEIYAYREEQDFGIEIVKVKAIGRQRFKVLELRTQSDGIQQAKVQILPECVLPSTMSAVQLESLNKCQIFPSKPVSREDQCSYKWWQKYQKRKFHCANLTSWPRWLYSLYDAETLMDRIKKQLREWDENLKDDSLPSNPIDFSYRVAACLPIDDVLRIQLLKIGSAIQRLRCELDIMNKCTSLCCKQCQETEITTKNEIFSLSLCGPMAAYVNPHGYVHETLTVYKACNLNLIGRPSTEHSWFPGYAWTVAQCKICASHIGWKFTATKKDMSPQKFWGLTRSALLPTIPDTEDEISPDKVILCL
Experiment: log2 fold change of degron read counts, EGFP-low vs EGFP+ sorted cells (limma voom), compound-induced degradation; higher = more compound-induced degradation of the degron-EGFP fusion; degrons are variants of IKZF1/3 zinc finger 2; compound dose not given here
Conditions: Jurkat; 18 h; compound: thalidomide
The full ranking holds about 8,300 sequences; the median of “log2 fold change of degron read counts, EGFP-low vs EGFP+ sorted cells (limma voom), compound-induced degradation” is about -1.1, and the highest 2% start at about 3.2. The sample as a whole holds a higher share of the highest values than the screen did.
Assign class by log2 fold change of degron read counts: not lower than 0.6 means Yes; lower than 0.6 means No.

Tell me whether log2 fold change of degron read counts is at least 0.6 here: FNCEICGAPFTQKGNLLRHIKL [46F_47N_49E_50I_52G_53A_54P_55F_67L_, Q9UKT9]
Yes

Tell me whether log2 fold change of degron read counts is at least 0.6 here: LYCEICGFGCTQKGNLLRHIKL [46L_47Y_49E_50I_52G_53F_54G_55C_67L_, Q9UKT9]
No

Tell me whether log2 fold change of degron read counts is at least 0.6 here: FNCEICGADFTQKGNLLRHIKL [46F_47N_49E_50I_52G_53A_54D_55F_67L_, Q9UKT9]
No

Tell me whether log2 fold change of degron read counts is at least 0.6 here: LMCEICGFKCTQKGNLLRHIKL [46L_47M_49E_50I_52G_53F_54K_55C_67L_, Q9UKT9]
Yes

Tell me whether log2 fold change of degron read counts is at least 0.6 here: FNCEQCGAPFTQKGNLLRHIKL [46F_47N_49E_50Q_52G_53A_54P_55F_67L_, Q9UKT9]
No

Tell me whether log2 fold change of degron read counts is at least 0.6 here: FWCEICGAPFTQKGNLLRHIKL [46F_47W_49E_50I_52G_53A_54P_55F_67L_, Q9UKT9]
Yes

Tell me whether log2 fold change of degron read counts is at least 0.6 here: FQCEICGADFTQKGNLLRHIKL [46F_47Q_49E_50I_52G_53A_54D_55F_67L_, Q9UKT9]
Yes

Tell me whether log2 fold change of degron read counts is at least 0.6 here: FQCEICGRPFTQKGNLLRHIKL [46F_47Q_49E_50I_52G_53R_54P_55F_67L_, Q9UKT9]
Yes

Tell me whether log2 fold change of degron read counts is at least 0.6 here: FNCEICGAAFTQKGNLLRHIKL [46F_47N_49E_50I_52G_53A_54A_55F_67L_, Q9UKT9]
Yes

Tell me whether log2 fold change of degron read counts is at least 0.6 here: FWCEICGADFTQKGNLLRHIKL [46F_47W_49E_50I_52G_53A_54D_55F_67L_, Q9UKT9]
No

Tell me whether log2 fold change of degron read counts is at least 0.6 here: FICEICGAPFTQKGNLLRHIKL [46F_47I_49E_50I_52G_53A_54P_55F_67L_, Q9UKT9]
Yes

Tell me whether log2 fold change of degron read counts is at least 0.6 here: FSCEICGAAFTQKGNLLRHIKL [46F_47S_49E_50I_52G_53A_54A_55F_67L_, Q9UKT9]
Yes

Tell me whether log2 fold change of degron read counts is at least 0.6 here: FCCEICGAAFTQKGNLLRHIKL [46F_47C_49E_50I_52G_53A_54A_55F_67L_, Q9UKT9]
Yes

Tell me whether log2 fold change of degron read counts is at least 0.6 here: FICDVCGAWFTQKGNLLRHIKL [46F_47I_49D_50V_52G_53A_54W_55F_67L_, Q9UKT9]
No
